These data points were gathered from PubChem BioAssay (NCI).

Test system: A498 renal
assay_overview: NCI-60 one-dose screen, 48 h (100 = growth as untreated, 0 = no growth, -100 = all killed)
measurement_parameters: 10 µM unless noted
This is part of a sample that, as a whole, favours compounds with a hit. Of some 83,000 tested, about 20% had one in any assay.
growth values, listed per item
Give a bare numeral; the unit % is implied.

molecule | units | growth
C=C(C)[C@@H]1CC[C@]2(C(=O)OCCOCCOCC[P+](c3ccccc3)(c3ccccc3)c3ccccc3)CC[C@]3(C)[C@H](CC[C@@H]4[C@@]5(C)CC[C@H](OC(=O)C(Cl)Cl)C(C)(C)[C@@H]5CC[C@]43C)[C@@H]12 | % | -28.3
CC(=O)OC[C@]12CC[C@@H](c3cn(Cc4ccc(Cn5cc([C@@H]6CC[C@]7(COC(C)=O)CC[C@]8(C)[C@H](CC[C@@H]9[C@@]%10(C)CC[C@H](OC(C)=O)C(C)(C)[C@@H]%10CC[C@]98C)[C@@H]67)nn5)cc4)nn3)[C@@H]1[C@H]1CC[C@@H]3[C@@]4(C)CC[C@H](OC(C)=O)C(C)(C)[C@@H]4CC[C@@]3(C)[C@]1(C)CC2 | % | 105
COC(=O)c1nc(-c2ccccc2)oc1S(=O)(=O)n1nc(-c2ccccc2)cc1N | % | 108

Input COc1ccc2[nH]c(=O)c(/C=C/C(=O)c3ccccc3OC)cc2c1 . Output growth: 21.7

Input CCOC(=O)NCCc1nc2c([nH]1)c(=O)n(C)c(=O)n2C . Output growth: 105

Input O=C(Nc1nccs1)c1noc2ccccc12 . Output growth: 101

====

Tested on: A498 renal
assay_overview: NCI-60 one-dose screen, 48 h (100 = growth as untreated, 0 = no growth, -100 = all killed)
measurement_parameters: 10 µM unless noted
About 83,000 compounds went through this panel and 20% of them were active in at least one assay; those are over-represented in the sample as a whole.
Decide using growth: a value greater than or equal to 50% is criterion met, a smaller one is criterion not met.

These recorded examples may help you get a feel for the data.
compound | target_entity | qualitative_label
Cc1c(Cl)cccc1NC(=O)c1sc2nc3c(cc2c1N)CCCCC3 | A498 renal | criterion not met
CCCCCCCCCCCCCC1=NCC[N+]1(CCO)Cc1ccccc1 (stereo unspecified) | A498 renal | criterion met
CN(C)C1=NCCN1 | A498 renal | criterion met
CCN1CCN(c2ccc(NC(=O)Nc3nc4ccc(-c5ccccc5OC)cc4s3)cc2)CC1 | A498 renal | criterion met

Turning now to a further record.
Query: Identify whether the reported growth of the following compound is 50% or greater: CCc1ccc(OCc2ccccc2C(=O)Nc2ccc3nc(C)cc(N)c3c2)cc1
Result: criterion not met

====

System: MDA-MB-231 breast
assay_overview: NCI-60 one-dose screen, 48 h (100 = growth as untreated, 0 = no growth, -100 = all killed)
measurement_parameters: 10 µM unless noted
This is part of a sample that, as a whole, favours compounds with a hit. Of some 83,000 tested, about 20% had one in any assay.
test_readout: growth (%)
Give a bare numeral; the unit % is implied.

molecule | units | growth
Cc1cnc(SCc2ccc(Cl)cc2Cl)nc1Nc1ccc(Cl)c(Cl)c1 | % | 88.3
O=C(/C(=C\c1c(-c2ccccc2)[nH]c2ccccc12)S(=O)(=O)c1ccccc1)c1ccccc1 | % | 49.8
O=C(CCCCCCCCC(=O)Nc1cccc(C2=NCCN2)c1)Nc1cccc(C2=NCCN2)c1 | % | 101

Result for C#C[C@@]1(O)[C@@H](CO)O[C@@H](n2cc(Cl)c3c(N)ncnc32)[C@@H]1O , tested on MDA-MB-231 breast, growth: -6.34

Result for O=c1[nH]c2ccccc2cc1-c1nc2ccc(Cl)cc2[nH]1 , tested on MDA-MB-231 breast, growth: 44.9

Result for C#C[C@@]1(O)[C@@H](CO)O[C@@H](n2ccc3c(N)ncnc32)[C@@H]1O , tested on MDA-MB-231 breast, growth: -14.7

Result for Sc1cccc2cccnc12 , tested on MDA-MB-231 breast, growth: 33.8

Result for C=C1C(=O)O[C@H]2[C@H]1CC/C(COC(=O)CCC(=O)OC/C1=C/CC[C@@]3(C)O[C@H]3[C@H]3OC(=O)C(=C)[C@@H]3CC1)=C\CC[C@@]1(C)O[C@@H]21 , tested on MDA-MB-231 breast, growth: -0.376

Result for Cn1c2c(c3ccc(-c4ccn[nH]4)cc3c1=O)C(=O)c1ccccc1-2 , tested on MDA-MB-231 breast, growth: 86.9

====

Tested on: PC-3 prostate
assay_overview: NCI-60 one-dose screen, 48 h (100 = growth as untreated, 0 = no growth, -100 = all killed)
measurement_parameters: 10 µM unless noted
The panel holds about 83,000 compounds, 20% with a hit somewhere; the sample as a whole holds those more often.
test_readout: growth (%)
Give a bare numeral; the unit % is implied.

molecule | target_entity | growth, %
COc1cc(C2=NN(C(C)=O)C(c3cccc(Nc4ccnc5cc(C(F)(F)F)ccc45)c3)C2)cc(OC)c1OC (stereo not given) | PC-3 prostate | 25
O=C(Nc1nc(-c2ccccc2)cs1)c1cc(-c2ccc(Br)cc2)nc2ccccc12 | PC-3 prostate | 28.9
COC1=CC=CC2(OC)C3(O)CCCc4cccc(c43)N3C(=O)COC132 (stereo not given) | PC-3 prostate | 95.4
[2H]c1cc2c(c([2H])c1F)/C(=C/c1[nH]c(C)c(C(=O)NCCN(CC)CC)c1C)C(=O)N2 | PC-3 prostate | 28.3

Input COc1ccc(C(C)c2cc(OC)c(OC)c(OC)c2)cc1 (stereo not given) . Output growth: 24.5

====

System: K-562 leukemia
assay_overview: NCI-60 one-dose screen, 48 h
measurement_parameters: 10 µM unless noted
The panel holds about 83,000 compounds, 20% with a hit somewhere; the sample as a whole holds those more often. Activity calls are given as the source filed them. The calls were made as follows: active = growth percent below 10; inactive = the rest.
Outcomes you can answer with include only these: True (active), False (inactive)

molecule | qualitative_label
Cc1[nH]c2ncnc(Oc3ccc(NC(=O)Nc4ccc(Cl)c(C(F)(F)F)c4)cc3)c2c1C | False

Query: Call for entry Cc1ccc(-c2nc(C#N)c(S(=O)(=O)N(C)CCO)o2)cc1 :
Result: False

Query: Call for entry O=C(C[n+]1cccc2cc(Cl)ccc21)c1ccc2c(c1)CCCC2 :
Result: False

Query: Call for entry CN1C(=O)c2cc(Cl)nc3c(NC(=O)c4cccc(Cl)c4)c(Cl)c(NC(=O)c4cccc(Cl)c4)c1c23 :
Result: True

Query: Call for entry CN(C)CSc1nc2ccccc2s1 :
Result: False

====

growth values, listed per item
Tested on: NCI-H226 lung
assay_overview: NCI-60 one-dose screen, 48 h (100 = growth as untreated, 0 = no growth, -100 = all killed)
measurement_parameters: 10 µM unless noted
About 83,000 compounds went through this panel and 20% of them were active in at least one assay; those are over-represented in the sample as a whole. The source made the active and inactive calls. How the source made its calls: active means growth percent below 10; inactive means the rest.

compound | reading
Cc1cccc(C)c1NC(=O)CN(CC(C)C)CC(O)COc1ccccc1 (stereo not given) | 94.9% (inactive)
COc1cc(/C=N/Nc2nc(-c3ccc(F)cc3)c(C#N)c(N3CCOCC3)n2)ccc1O | 97.8% (inactive)
COc1ccc2nc3nc4ccc[nH]c4cc3c2c1 | 91.6% (inactive)
CCCCc1n(Cc2ccc3ccccc3c2)c2ccccc2[n+]1Cc1ccc2ccccc2c1 | -72.7% (active)

Input Cc1cnc(SCc2ccc(Cl)cc2Cl)nc1Nc1ccc(Cl)c(Cl)c1 . Output growth: 101% (inactive)

====

System: EKVX NSCLC
assay_overview: NCI-60 one-dose screen, 48 h (100 = growth as untreated, 0 = no growth, -100 = all killed)
measurement_parameters: 10 µM unless noted
Procedure: Growth inhibition of the EKVX human Non-Small Cell Lung tumor cell line is measured as a screen for anti-cancer activity. Cells are grown in 96 well plates and exposed to the test compound for 48 hours. Compounds are tested at a single concentration, which is 10^-5 M for most compounds. The reported endpoint is percent growth (GI% or GIPRCNT), where numbers from 0 - 100% represent growth inhibition, and numbers from -100% - 0 represent cell death. […]
The panel holds about 83,000 compounds, 20% with a hit somewhere; the sample as a whole holds those more often.
Please note: growth exactly at 80% is 0 (no). Only values below 80% get 1 (yes).

These recorded examples may help you get a feel for the data.
molecule | target_entity | qualitative_label
CCCS(=O)(=O)Nc1ccc(F)c(C(=O)c2c[nH]c3ncc(-c4ccc(OCCCC5CCCCN5)nc4)cc23)c1F (centres undefined) | EKVX NSCLC | 0 (no)
O=C(Nc1cc(Nc2ncccc2-c2ncnc3nc[nH]c23)ccc1F)c1cc(C(F)(F)F)cc(C(F)(F)F)c1 | EKVX NSCLC | 1 (yes)
Cn1c2ccccc2c2c(OC(=O)c3ccccc3)c3c(nc21)-c1ccccc1C3 | EKVX NSCLC | 0 (no)
C[C@]12CC[C@@H]3c4ccc(O)cc4CC[C@H]3[C@@H]1C[C@H](O)C2 | EKVX NSCLC | 1 (yes)
S=C(Nc1ccc(Cl)cc1)c1ccccn1 | EKVX NSCLC | 0 (no)
O=C(Nc1nc(-c2ccccc2Cl)cs1)c1cc(-c2ccc(Br)cc2)nc2ccccc12 | EKVX NSCLC | 1 (yes)
O=C(CCc1nnc2sc(OCc3ccccc3)nn12)c1nc2ccc([N+](=O)[O-])cc2[nH]1 | EKVX NSCLC | 0 (no)
CCN1CCC[C@H]1c1cc(O)c2c(c1OC)C[C@H]1C[C@H]3[C@H](N)C(=O)C(C(N)=O)=C(O)[C@@]3(O)C(=O)C1=C2O | EKVX NSCLC | 1 (yes)

Turning now to a further record.
Query: Record C=CCn1c(SCC(=O)Nc2ccc(C(=O)/C=C/c3ccc(Cl)cc3)cc2)nnc1-c1cc(OC)c(OC)c(OC)c1 : is its growth strictly below 80%?
Result: 0 (no)
